Sourced from the kinase profiling compilation of Christmann-Franck et al. (2016)

# assay-target: CDK16 (human) (UniProt Q00536)
# Sequence (Q00536 whole entry, looked up): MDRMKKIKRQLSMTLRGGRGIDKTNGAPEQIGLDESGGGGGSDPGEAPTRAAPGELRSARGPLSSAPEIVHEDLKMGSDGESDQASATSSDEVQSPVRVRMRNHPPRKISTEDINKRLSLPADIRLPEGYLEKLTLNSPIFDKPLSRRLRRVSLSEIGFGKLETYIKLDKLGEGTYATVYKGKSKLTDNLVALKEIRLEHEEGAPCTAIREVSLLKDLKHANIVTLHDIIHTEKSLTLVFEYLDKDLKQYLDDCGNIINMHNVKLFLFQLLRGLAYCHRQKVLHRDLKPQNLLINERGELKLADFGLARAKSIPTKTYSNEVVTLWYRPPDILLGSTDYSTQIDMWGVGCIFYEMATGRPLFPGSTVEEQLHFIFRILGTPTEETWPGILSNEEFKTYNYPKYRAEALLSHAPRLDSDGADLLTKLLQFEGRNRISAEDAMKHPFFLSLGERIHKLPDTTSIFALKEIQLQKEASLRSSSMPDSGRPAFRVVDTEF
# protocol-text: KINOMEscan competition binding
# condition-notes: compound 10.0 µM
value-kind: kinase still bound, per cent of control (%)

P: Cc1cnc(-c2cnc(NCCNc3ccc(C#N)cn3)nc2-c2ccc(Cl)cc2Cl)[nH]1
Q: Cn1cc(C2=C(c3ccc(Cl)cc3Cl)C(=O)NC2=O)c2ccccc21
R: COc1ccc(CNC(=O)Nc2ncc([N+](=O)[O-])s2)cc1
S: O=C1Nc2cc(Br)ccc2/C1=C1/Nc2ccccc2/C1=N\O
q: Order the records by kinase still bound, per cent of control, with each subsequent value no larger than the one before. Response field: labels, in requested order.
a: P, R, Q, S
(P: 39%, R: 15%, Q: 0.2%, S: 0%)
